Measured values drawn from the supplement of paper PMC10065799 for this set.

Below is a list of entries, each paired with its recorded phosphorylation enrichment value.
Biological target: MERTK (UniProt Q12866)
Sequence (Q12866 whole entry, looked up): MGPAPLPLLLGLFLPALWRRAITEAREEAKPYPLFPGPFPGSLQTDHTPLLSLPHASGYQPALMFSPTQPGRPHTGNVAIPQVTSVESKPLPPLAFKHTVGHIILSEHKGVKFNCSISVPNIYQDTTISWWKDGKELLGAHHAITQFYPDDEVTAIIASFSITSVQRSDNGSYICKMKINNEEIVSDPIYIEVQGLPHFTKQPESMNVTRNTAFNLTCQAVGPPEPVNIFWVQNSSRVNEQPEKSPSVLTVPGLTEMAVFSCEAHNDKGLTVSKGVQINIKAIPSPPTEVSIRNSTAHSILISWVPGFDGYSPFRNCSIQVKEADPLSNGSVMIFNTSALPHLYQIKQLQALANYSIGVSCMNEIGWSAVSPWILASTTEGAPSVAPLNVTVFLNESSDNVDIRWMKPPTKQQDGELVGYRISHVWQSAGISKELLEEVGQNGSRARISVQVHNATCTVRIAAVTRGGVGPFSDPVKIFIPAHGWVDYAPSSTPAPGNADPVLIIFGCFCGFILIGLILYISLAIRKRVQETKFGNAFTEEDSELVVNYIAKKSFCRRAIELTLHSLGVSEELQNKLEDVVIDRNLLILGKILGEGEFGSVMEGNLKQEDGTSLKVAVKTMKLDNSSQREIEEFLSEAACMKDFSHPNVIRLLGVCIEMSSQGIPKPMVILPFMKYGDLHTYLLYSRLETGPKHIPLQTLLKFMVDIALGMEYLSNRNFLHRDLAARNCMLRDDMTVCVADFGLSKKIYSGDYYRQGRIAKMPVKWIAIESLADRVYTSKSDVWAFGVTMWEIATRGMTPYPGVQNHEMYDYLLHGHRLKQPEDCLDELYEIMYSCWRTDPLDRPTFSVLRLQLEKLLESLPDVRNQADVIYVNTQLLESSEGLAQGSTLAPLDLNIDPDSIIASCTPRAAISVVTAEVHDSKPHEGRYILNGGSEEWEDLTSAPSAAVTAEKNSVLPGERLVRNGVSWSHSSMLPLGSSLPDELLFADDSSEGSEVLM
Test: phosphorylation enrichment, bacterial display (enrichment ratio); higher = better substrate or ligand; peptides without Tyr show the background;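 note: 11-residue human phosphosite peptides and single-mutation variants displayed on the E. coli surface, counted by deep sequencing, each peptide's frequency after selection divided by its frequency in the unselected input library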;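 note: frequency after pTyr selection over input frequency; kinase dosed for 20-30% of maximal phosphorylation in three min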
endpoint: phosphorylation enrichment

{"columns": ["monomer-sequence", "endpoint", "measured"],
 "data": [
  ["KAVLHYKHQNQ [MTOR_Y1804_E1799K]", "phosphorylation enrichment", 0.366],
  ["ALKKPYSVLYK [RPF2_Y59_G60S]", "phosphorylation enrichment", 0.436],
  ["GHPFAYDWISI [BEST1_Y227_L224P_YF]", "phosphorylation enrichment", 6.57],
  ["GSERDYTYEEL [EIF2S2_Y174]", "phosphorylation enrichment", 0.707],
  ["VPLLEYYWDIF [CDAN1_Y712_R714W]", "phosphorylation enrichment", 1.54],
  ["LPKDLYLISQM [LARP4_Y141_S137P]", "phosphorylation enrichment", 0.785],
  ["TTKGSYSLSVR [HCK_Y180]", "phosphorylation enrichment", 0.455],
  ["EEVKAYLDFRE [CHAC2_Y78]", "phosphorylation enrichment", 0.524],
  ["LSPNMYNSKLW [TARSL2_Y457]", "phosphorylation enrichment", 0.603],
  ["FCRHNYGAVES [HLA-DRB1_Y112_V114A_YF]", "phosphorylation enrichment", 0.439],
  ["LVRAFYCERRW [CARD11_Y970_R975W]", "phosphorylation enrichment", 0.64],
  ["DAVCYYRMENA [NPHS2_Y195_I192V]", "phosphorylation enrichment", 1.82],
  ["QYPDIYAREEV [CRX_Y67_V66I]", "phosphorylation enrichment", 1.48],
  ["ENELTYFCCKK [CD59_Y86_YF]", "phosphorylation enrichment", 0.703],
  ["VDSGVYAVPPP [BCAR1_Y410]", "phosphorylation enrichment", 9.97],
  ["DKATEYSQYMR [MAX_Y70_I71S]", "phosphorylation enrichment", 0.473],
  ["QQMGTYGVRAA [ICAM2_Y260_R256Q]", "phosphorylation enrichment", 0.658],
  ["AGIVVYNIIGW [MYH7_Y588_D587V]", "phosphorylation enrichment", 1.17],
  ["CNPLRYPVLMS [OR2T1_Y182]", "phosphorylation enrichment", 0.428],
  ["GRVFVYRLSEQ [ITGAE_Y551_YF]", "phosphorylation enrichment", 0.404],
  ["NMSRIYSTAKV [ACE_Y151]", "phosphorylation enrichment", 0.417],
  ["GGSDRYGSLRP [MYLK_Y846]", "phosphorylation enrichment", 0.37],
  ["VYPATYHPDHW [EFCAB12_Y544]", "phosphorylation enrichment", 0.296],
  ["TRVMEYISRLD [CLTCL1_Y1043]", "phosphorylation enrichment", 0.325],
  ["PDSVDYRKKGY [CTSK_Y121]", "phosphorylation enrichment", 0.823],
  ["ADEQIYWQIAA [CSKtide_2014]", "phosphorylation enrichment", 3.12],
  ["YGMQLYQKYMH [GRB14_Y347_N349K]", "phosphorylation enrichment", 1.92],
  ["SGRPGYCLGTR [SCO1_Y60]", "phosphorylation enrichment", 0.462],
  ["WFQTKYEELQV [KRT6B_Y360_I365V_YF]", "phosphorylation enrichment", 0.305]
]}

====

Below is a list of entries, each paired with its recorded phosphorylation enrichment value.
Test system: c-Src
Experiment: phosphorylation enrichment, bacterial display (enrichment ratio); higher = better substrate or ligand; peptides without Tyr show the background

{"columns": ["monomer-sequence", "phosphorylation enrichment"],
 "data": [
  ["MSRDVYSIDFF [NTRK2_Y702_T704I_YF]", 6.79],
  ["GFPVRYTDVSN [DNMT3B_Y815_H814R]", 0.448],
  ["TRVMEYISRLD [CLTCL1_Y1043]", 0.358],
  ["FYDANCDGKEY [MAPRE2_Y162_Y162C]", 0.642],
  ["HLMLQYDAVVN [SLC25A32_Y152_R147H]", 0.885],
  ["RWQQLYDTLNA [EIF3M_Y351_Q346R]", 3.71],
  ["AAYNKYDQERF [CDC73_Y293_R292K]", 0.398],
  ["IDPYTYTPFGS [CYP3A4_Y432_I431T]", 6.82],
  ["PGLKGYPGLSG [COL4A2_Y306_R304K]", 0.347],
  ["SHNKYYMLVAR [MFSD8_Y134]", 0.487],
  ["NYNPNYCFAGK [ALK_Y1096_D1091N]", 0.564],
  ["SVSNNYIQTLG [CTNND1_Y174]", 0.445],
  ["GGQSVYHVHLH [HINT1_Y109]", 1.01],
  ["HESEIYCKVCY [CSRP3_Y57]", 7.01],
  ["LPEHPYHSRPR [NDUFA8_Y142_N140H]", 1.27],
  ["MTRDIYETDFF [INSR_Y1185_YF]", 2.06],
  ["EKMWTYMRSAE [GRIA4_Y695]", 0.404],
  ["QISSNYDDAMQ [ZNF281_Y531]", 0.57],
  ["RAQIRYAQEHD [NSD1_Y1987_R1984Q]", 0.847],
  ["PYGQWYESHYA [RPS8_Y113_R110G]", 6.96],
  ["RCLKDYGEFEV [GINS1_Y156]", 1.19],
  ["RFLKDYGEFEV [GINS1_Y156_C152Y_YF]", 1.07],
  ["GVRLYYRVMES [RB1_Y454]", 0.333],
  ["SVLVPYEPPEV [TP53_Y220_V217L]", 0.541],
  ["EEVKAYLDFRE [CHAC2_Y78]", 0.59],
  ["KAVLHYKHQNQ [MTOR_Y1804_E1799K]", 0.366],
  ["FQNSLYAPDYS [FAM92A_Y226_R222Q]", 1.42],
  ["MYQVQYNSSVD [LRFN1_Y458]", 0.417],
  ["LAGRFYALKSM [CKB_Y174_YF]", 0.461]
]}

====

Below is a list of entries, each paired with its recorded phosphorylation enrichment value.
Target: Hck (UniProt P08631)
Sequence (P08631 whole entry, looked up): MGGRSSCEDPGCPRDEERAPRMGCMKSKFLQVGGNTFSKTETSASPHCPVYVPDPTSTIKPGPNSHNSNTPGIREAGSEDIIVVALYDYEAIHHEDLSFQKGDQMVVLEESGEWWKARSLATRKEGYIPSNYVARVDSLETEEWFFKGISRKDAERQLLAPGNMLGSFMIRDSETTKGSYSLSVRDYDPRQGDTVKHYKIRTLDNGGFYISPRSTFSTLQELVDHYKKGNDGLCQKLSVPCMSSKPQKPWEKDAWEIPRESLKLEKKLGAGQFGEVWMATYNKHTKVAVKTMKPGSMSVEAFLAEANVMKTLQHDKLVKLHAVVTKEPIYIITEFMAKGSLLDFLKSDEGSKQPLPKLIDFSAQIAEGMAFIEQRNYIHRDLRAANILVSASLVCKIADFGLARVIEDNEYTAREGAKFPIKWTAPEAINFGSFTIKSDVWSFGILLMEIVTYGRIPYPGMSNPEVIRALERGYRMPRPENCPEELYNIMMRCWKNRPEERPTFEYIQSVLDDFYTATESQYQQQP
Test: phosphorylation enrichment, bacterial display (enrichment ratio); higher = better substrate or ligand; peptides without Tyr show the background
endpoint: phosphorylation enrichment

{"columns": ["monomer-sequence", "assay-target", "measured"],
 "data": [
  ["HAVYIYDICHV [TWNK_Y508_V507I]", "Hck (UniProt P08631)", 5.31],
  ["PVQAAYPKVVA [HBB_Y131_Q132P]", "Hck (UniProt P08631)", 0.335],
  ["EPVSDYINANV [PTPN11_Y304_I309V]", "Hck (UniProt P08631)", 0.428],
  ["VYPATYHPDHW [EFCAB12_Y544]", "Hck (UniProt P08631)", 0.689],
  ["FMCKVYSDPQP [FGFR1_Y280]", "Hck (UniProt P08631)", 0.578],
  ["ADIETYLLEKS [MYH7_Y266]", "Hck (UniProt P08631)", 0.551],
  ["VDSGVYAVPPP [BCAR1_Y410]", "Hck (UniProt P08631)", 8.02],
  ["EWRSPYGLTPR [GRIN3B_Y601]", "Hck (UniProt P08631)", 0.474],
  ["RLPSGYGLAYR [DLK1_Y262]", "Hck (UniProt P08631)", 0.555],
  ["RHYVYYYSYLL [PTEN_Y177_R173H]", "Hck (UniProt P08631)", 2.49],
  ["EDGCIYPATIA [SMN1_Y109]", "Hck (UniProt P08631)", 0.577],
  ["GIKAAYEAERG [LMNA_Y81_L85R]", "Hck (UniProt P08631)", 0.406],
  ["MTRDIYETDFF [INSR_Y1185_YF]", "Hck (UniProt P08631)", 1.4],
  ["HNELYYEEAEH [VANGL1_Y345]", "Hck (UniProt P08631)", 0.798],
  ["LPENPYHSRPR [NDUFA8_Y142]", "Hck (UniProt P08631)", 0.916],
  ["SGRRRYTIAAL [TTR_Y125_P122R]", "Hck (UniProt P08631)", 0.517],
  ["FKEQGYHRLPP [RIN1_Y681_YF]", "Hck (UniProt P08631)", 0.456],
  ["MAYDRYAAICS [OR8H2_Y123_H120Y]", "Hck (UniProt P08631)", 0.76],
  ["RSRQIYDAFIM [GRK3_Y109_YF]", "Hck (UniProt P08631)", 6.86],
  ["PKGTGYIKTEL [STAT1_Y701]", "Hck (UniProt P08631)", 0.748],
  ["GIVEEYQLPFF [BMPR1A_Y453_YF]", "Hck (UniProt P08631)", 0.604],
  ["WSISFYPQVIM [CTNS_Y143]", "Hck (UniProt P08631)", 0.399],
  ["FFRDGHMPRQF [GSS_Y270_Y270H_YF]", "Hck (UniProt P08631)", 0.357],
  ["LRSKQYLRNPP [SHC1_Y315_F312S]", "Hck (UniProt P08631)", 0.4],
  ["TDLAFYLVRKG [ASL_Y376_YF]", "Hck (UniProt P08631)", 0.67],
  ["EPAVLYNLKDR [MYH7_Y103]", "Hck (UniProt P08631)", 0.662],
  ["EHEALYLEADL [CENPF_Y1920]", "Hck (UniProt P08631)", 0.715],
  ["AMGPVYQAAAL [HYOU1_Y421_A419P]", "Hck (UniProt P08631)", 6.53],
  ["SRPHLYGTPSR [ADGRE2_Y670]", "Hck (UniProt P08631)", 0.565],
  ["SRIWVYNHYRC [BRCA2_Y2621_W2626C]", "Hck (UniProt P08631)", 0.459]
]}
